These entries and their values trace back to patent US20120039802A1.

Please go through the items and note down their Protein ELISA (fold over background).
# system: T1, cMet-Fc fusion protein (extracellular domain of the cMet receptor expressed as an Fc-fusion protein) (human, UniProt P08581 25-932)
# T1 construct: extracellular domain; also called soluble cMet-Fc-fusion protein; soluble cMet receptor; not shown: Fc part
# T1 sequence (P08581 25-932): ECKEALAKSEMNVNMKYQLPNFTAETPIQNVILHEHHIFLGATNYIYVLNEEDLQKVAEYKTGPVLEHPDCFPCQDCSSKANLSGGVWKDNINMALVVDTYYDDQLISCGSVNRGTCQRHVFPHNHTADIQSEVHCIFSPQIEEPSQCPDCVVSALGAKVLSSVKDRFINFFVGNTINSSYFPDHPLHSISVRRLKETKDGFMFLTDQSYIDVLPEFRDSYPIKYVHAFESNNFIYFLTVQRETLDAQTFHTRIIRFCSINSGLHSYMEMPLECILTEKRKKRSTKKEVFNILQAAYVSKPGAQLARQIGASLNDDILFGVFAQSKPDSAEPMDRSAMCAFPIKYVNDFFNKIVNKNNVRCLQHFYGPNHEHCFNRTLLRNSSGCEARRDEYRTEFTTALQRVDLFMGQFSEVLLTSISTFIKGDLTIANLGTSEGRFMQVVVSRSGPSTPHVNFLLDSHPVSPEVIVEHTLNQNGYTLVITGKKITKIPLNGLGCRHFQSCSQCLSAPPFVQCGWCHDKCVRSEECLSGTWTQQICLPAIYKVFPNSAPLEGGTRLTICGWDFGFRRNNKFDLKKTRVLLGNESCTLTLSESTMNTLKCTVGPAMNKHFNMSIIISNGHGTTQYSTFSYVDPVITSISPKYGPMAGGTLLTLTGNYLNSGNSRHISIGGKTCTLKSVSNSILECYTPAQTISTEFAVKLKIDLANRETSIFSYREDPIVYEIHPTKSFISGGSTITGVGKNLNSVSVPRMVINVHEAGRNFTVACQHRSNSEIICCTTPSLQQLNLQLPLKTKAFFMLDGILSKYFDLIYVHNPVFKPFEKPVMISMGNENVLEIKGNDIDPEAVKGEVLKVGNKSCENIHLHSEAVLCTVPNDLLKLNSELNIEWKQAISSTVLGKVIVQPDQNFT
# assay.summary: phage ELISA, cMet-Fc vs TRAIL-Fc
One number for each entry, in fold.

See these solved cases before continuing.
>>> print(df.to_string())
                                     binder                              property  unit_of_measurement  assay_value
0  GSFTACNKTSTTRQPCNPYAP [451-B12 peptide-displaying phage (SEQ ID NO: 384)]  Protein ELISA (fold over background)                 fold          3.1
1  AGSIQCKGPPWFSCAMYGT [325-H05 peptide-displaying phage (SEQ ID NO: 048)]  Protein ELISA (fold over background)                 fold         15.9
2  GDNRFCSWVYNVDDWWCVDNDP [332-H09 peptide-displaying phage (SEQ ID NO: 398)]  Protein ELISA (fold over background)                 fold          6.2
3  AGTWHCAGPPWFTCYMDGT [551-B02 peptide-displaying phage (SEQ ID NO: 069)]  Protein ELISA (fold over background)                 fold            9

Required: Protein ELISA (fold over background), one value per binder below.
1. AQHSVQRQMDVWMPVQFMAGFT [02-B08 peptide-displaying phage (SEQ ID NO: 467)]
2. AGDWHCQGPPAFMCWMIGT [330-C01 peptide-displaying phage (SEQ ID NO: 065)]
3. GDPWWCFEKDSFIPFACWHHDP [330-G02 peptide-displaying phage (SEQ ID NO: 396)]

1: 3.9; 2: 4.7; 3: 7.4
